assay overview: self-splicing fitness, log relative to wild type (ln ratio); higher = more splicing; Tetrahymena group I intron in knt gene, E. coli kanamycin selection, DiMSum; sequences stand for … in CUCUCU…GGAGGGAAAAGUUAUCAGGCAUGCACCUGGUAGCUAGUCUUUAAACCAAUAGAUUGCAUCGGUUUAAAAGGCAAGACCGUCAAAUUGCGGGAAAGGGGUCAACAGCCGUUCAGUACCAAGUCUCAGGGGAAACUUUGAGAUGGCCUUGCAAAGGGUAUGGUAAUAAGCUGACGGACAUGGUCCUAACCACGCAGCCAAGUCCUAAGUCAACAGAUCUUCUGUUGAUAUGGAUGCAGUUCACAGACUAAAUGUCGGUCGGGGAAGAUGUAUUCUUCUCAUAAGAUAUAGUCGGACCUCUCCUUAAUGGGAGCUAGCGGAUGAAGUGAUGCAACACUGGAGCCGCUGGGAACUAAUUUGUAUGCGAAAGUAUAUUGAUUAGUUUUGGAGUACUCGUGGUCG;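 further: selection with 25 µg/mL kanamycin versus none on LB agar overnight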
particulars: 37 °C
assay endpoint: self-splicing fitness (ln)

{"columns": ["primary sequence", "self-splicing fitness (ln)"],
 "data": [
  ["AUCUAGCAAUAUUACGCGCA", -0.485],
  ["CCGAAGCAAUAUUACGCAAA", -2.17],
  ["GUAGAGCAAUAUUACGCGAU", 0.14],
  ["GCCAAGCAAUAUUACGUAGC", -1.31],
  ["AACUAGCAAUAUUACGUGAU", -1.09],
  ["CACCAGCAAUAUUACGUAAG", 0.336],
  ["UCCGAGCAAUAUUACGUUUG", -3.36],
  ["UUGUAGCAAUAUUACGAACU", 0.102],
  ["AAAAAGCAAUAUUACGUAUC", -1.5],
  ["CGCUAGCAAUAUUACGCCGG", -2.24]
]}

The value of self-splicing fitness (ln) measured for the sequence `CGUAAGCAAUAUUACGAUGG` turned out to be -0.574

The value of self-splicing fitness (ln) measured for the sequence `GGCGAGCAAUAUUACGUCAU` turned out to be -1.76

The value of self-splicing fitness (ln) measured for the sequence `AUUUAGCAAUAUUACGCGGA` turned out to be -0.805

The value of self-splicing fitness (ln) measured for the sequence `CUCCAGCAAUAUUACGCUAG` turned out to be -2.7

The value of self-splicing fitness (ln) measured for the sequence `GAUCAGCAAUAUUACGGGCG` turned out to be -0.511

The value of self-splicing fitness (ln) measured for the sequence `GUACAGCAAUAUUACGCGUU` turned out to be -1.35

The value of self-splicing fitness (ln) measured for the sequence `GCAAAGCAAUAUUACGGCAA` turned out to be -0.722

The value of self-splicing fitness (ln) measured for the sequence `ACGGAGCAAUAUUACGUAUC` turned out to be -2.52

The value of self-splicing fitness (ln) measured for the sequence `UAAGAGCAAUAUUACGAGAA` turned out to be -1.68

* * *

assay overview: self-splicing fitness, log relative to wild type (ln ratio); higher = more splicing; Tetrahymena group I intron in knt gene, E. coli kanamycin selection, DiMSum; sequences stand for … in CUCUCU…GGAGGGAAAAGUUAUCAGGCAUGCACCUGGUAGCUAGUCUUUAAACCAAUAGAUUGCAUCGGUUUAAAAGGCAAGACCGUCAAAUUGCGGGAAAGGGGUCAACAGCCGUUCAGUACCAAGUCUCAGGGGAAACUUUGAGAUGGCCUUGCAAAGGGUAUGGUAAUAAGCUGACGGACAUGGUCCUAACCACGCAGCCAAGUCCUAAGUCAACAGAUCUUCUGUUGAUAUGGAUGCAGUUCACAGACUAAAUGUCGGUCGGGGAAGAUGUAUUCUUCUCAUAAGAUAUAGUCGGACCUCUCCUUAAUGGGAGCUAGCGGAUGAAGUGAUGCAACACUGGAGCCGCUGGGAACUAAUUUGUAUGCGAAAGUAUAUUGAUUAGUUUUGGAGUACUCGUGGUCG
particulars: 37 °C
Lab note: anything with self-splicing fitness (ln) at or over -2 counts as Y; the rest go in N.

Example entries and their recorded answers appear below.
{"columns": ["primary sequence", "answer label"],
 "data": [
  ["CGCCAGCAAUAUUACGGGGC", "N"],
  ["GACUAGCAAUAUUACGGAGC", "N"],
  ["GGCGAGCAAUAUUACGGAAU", "Y"]
]}

We next turn to a different sequence, shown below.
# input Given the entry `AGCAAGCAAUAUUACGAAUU` , answer whether its self-splicing fitness (ln) meets or surpasses -2.
# output Y
